Where do the numbers come from? From patent US7691842B2.

molecular target: class A β-lactamase Imi-1 (Enterobacter cloacae); assay: β-Lactamase inhibition, IC50 determination (nitrocefin, spectrophotometric); assay type: biochemical; conditions: enzyme 7.1 nM; 10 min preincubation at 25° C.; nitrocefin 50 μg/ml; 50 mM PO4, pH 7.0; read-out: IC50 (nM) Class A Imi
Sequence (Q46991 entry or part of it): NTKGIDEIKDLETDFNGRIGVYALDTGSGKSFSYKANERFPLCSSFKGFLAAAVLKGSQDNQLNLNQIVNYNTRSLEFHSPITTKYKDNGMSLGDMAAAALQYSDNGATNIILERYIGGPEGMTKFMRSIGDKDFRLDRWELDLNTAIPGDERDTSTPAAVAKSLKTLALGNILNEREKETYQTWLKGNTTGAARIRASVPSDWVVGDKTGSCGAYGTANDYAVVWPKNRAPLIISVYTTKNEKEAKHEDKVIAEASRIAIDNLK
Lab note - cut at 100 nM for IC50: fulfilled if strictly below, not fulfilled if not.

Compound: Cc1ccc2c(c1)sc1nc(/C=C3/C(=O)N4C(C(=O)O)=CS[C@H]34)cn12 [Example 7]
Assigned class: not fulfilled
--
Compound: O=C([O-])C1=CS[C@@H]2/C(=C\c3cc4oc5c(n4n3)CCCC5)C(=O)N12.[Na+] [Example 32, sodium salt]
Assigned class: not fulfilled
--
Compound: O=C(O)C1=CS[C@@H]2/C(=C\c3cn4c5c(sc4n3)CCCC5)C(=O)N12 [Example 19]
Assigned class: fulfilled
--
Compound: O=C(O)C1=CS[C@@H]2/C(=C\c3ccc4c(c3)sc3nccn34)C(=O)N12 [Example 16]
Assigned class: fulfilled
--
Compound: O=C(O)C1=CS[C@@H]2/C(=C\c3cn4c(n3)sc3cc(Cl)ccc34)C(=O)N12 [Example 3]
Assigned class: fulfilled
--
Compound: O=C([O-])C1=CS[C@@H]2C(=Cc3cc4n(n3)Cc3ccccc3OC4)C(=O)N12.[Na+] [Example 11, sodium salt]
Assigned class: fulfilled
--
Compound: CCOC(=O)N1CCc2c(oc3cc(/C=C4/C(=O)N5C(C(=O)[O-])=CS[C@H]45)nn23)C1.[Na+] [Example 33, sodium salt]
Assigned class: not fulfilled
--
Compound: O=C([O-])C1=CS[C@@H]2/C(=C\c3cc4c(s3)-c3cccnc3SC4)C(=O)N12.[Na+] [Example 21, (Sodium salt)]
Assigned class: not fulfilled
